Cited source for all entries: paper PMC9721424

- TESTED_ON: 5-LOX enzyme (Homo sapiens, UniProt P09917)
- Construct: purchased Cayman Chemical K980-100
- Sequence (P09917 1-674): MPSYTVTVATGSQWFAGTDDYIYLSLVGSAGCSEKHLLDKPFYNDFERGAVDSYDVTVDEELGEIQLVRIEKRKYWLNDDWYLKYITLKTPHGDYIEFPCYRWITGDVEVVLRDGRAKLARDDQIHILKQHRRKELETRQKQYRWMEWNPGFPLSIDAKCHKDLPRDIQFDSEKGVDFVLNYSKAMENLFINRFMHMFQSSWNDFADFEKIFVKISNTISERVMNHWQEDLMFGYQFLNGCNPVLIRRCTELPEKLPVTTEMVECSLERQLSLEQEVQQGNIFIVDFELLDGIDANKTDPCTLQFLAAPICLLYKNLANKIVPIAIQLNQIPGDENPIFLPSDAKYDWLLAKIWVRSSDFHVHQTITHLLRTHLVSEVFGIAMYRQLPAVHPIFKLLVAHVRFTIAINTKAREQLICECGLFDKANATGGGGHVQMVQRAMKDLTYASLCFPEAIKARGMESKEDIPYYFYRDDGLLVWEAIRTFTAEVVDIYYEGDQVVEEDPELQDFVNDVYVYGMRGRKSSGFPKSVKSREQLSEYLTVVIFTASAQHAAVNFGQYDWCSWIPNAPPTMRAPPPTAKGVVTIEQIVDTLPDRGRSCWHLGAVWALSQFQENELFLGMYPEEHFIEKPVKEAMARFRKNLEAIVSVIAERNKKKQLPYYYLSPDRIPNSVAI
- EXPERIMENT_DESCRIPTION: 5-LOX inhibition, Human Lipoxygenase Inhibitor Screening Assay (EIA) kit
- Assay type: biochemical
- MEASUREMENT_CONDITIONS: conc 10 (μM)
Below, each entry is listed alongside its reported 5-LOX %inh.
Entry rule: numbers only, all in %.

Known 5-LOX %inh results, listed for orientation:
* CCNC(=S)N/N=C/c1cn(S(C)(=O)=O)c2ccccc12 | 30.5
* COc1ccc(NC(=S)N/N=C/c2cn(S(C)(=O)=O)c3ccccc23)cc1 | 55.7
* CS(=O)(=O)n1cc(/C=N/N=C2\SC(=O)CN2c2ccccc2)c2ccccc21 | 13
* CS(=O)(=O)n1cc(/C=N/N=C2/NCC(=O)S2)c2ccccc21 | 50.3
* Cc1ccc(NC(=S)N/N=C/c2cn(S(C)(=O)=O)c3ccccc23)cc1 | 33.7
* CC(c1cc2ccccc2s1)N(O)C(N)=O (centres unmarked) [Zileuton, reference compound] | 77.1
* COc1ccc(N2CC(=O)S/C2=N\N=C\c2cn(S(C)(=O)=O)c3ccccc23)cc1 | 53

For record `CS(=O)(=O)n1cc(/C=N/NC(N)=S)c2ccccc21` the listed 5-LOX %inh is 69

====

- TESTED_ON: COX-2 (Ovis aries, UniProt P79208)
- Sequence (P79208 17-603): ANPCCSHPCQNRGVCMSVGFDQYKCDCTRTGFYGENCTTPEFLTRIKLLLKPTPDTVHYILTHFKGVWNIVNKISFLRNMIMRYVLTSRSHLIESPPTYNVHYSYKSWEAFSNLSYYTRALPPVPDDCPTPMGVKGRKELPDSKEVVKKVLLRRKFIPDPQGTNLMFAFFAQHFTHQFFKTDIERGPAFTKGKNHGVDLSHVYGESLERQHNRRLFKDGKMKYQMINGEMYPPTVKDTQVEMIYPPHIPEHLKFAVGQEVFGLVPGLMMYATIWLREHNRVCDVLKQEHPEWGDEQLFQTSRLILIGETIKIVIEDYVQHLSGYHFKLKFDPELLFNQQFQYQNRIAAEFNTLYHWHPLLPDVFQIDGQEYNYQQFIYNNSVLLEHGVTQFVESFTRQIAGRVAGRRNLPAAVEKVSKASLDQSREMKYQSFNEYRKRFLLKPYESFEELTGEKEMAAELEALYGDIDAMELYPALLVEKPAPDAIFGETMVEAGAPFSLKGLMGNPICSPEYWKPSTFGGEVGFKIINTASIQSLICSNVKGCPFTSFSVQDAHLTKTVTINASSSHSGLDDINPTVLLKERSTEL
- EXPERIMENT_DESCRIPTION: COX-2 inhibition, enzyme immune assay (EIA) kit
- Type: biochemical, ovine
- MEASUREMENT_CONDITIONS: COX-2 selectivity index
RECORDED_METRIC: S.I (IC50 COX-1/IC50 COX-2)
Could you keep your reply to the number by itself?

# example entries with known answers
• CS(=O)(=O)n1cc(/C=N/NC(=S)Nc2ccccc2)c2ccccc21 [Compound 4c] = 3.12
• COc1ccc(NC(=S)N/N=C/c2cn(S(C)(=O)=O)c3ccccc23)cc1 [Compound 4e] = 30.17

S.I (IC50 COX-1/IC50 COX-2) reading for CS(=O)(=O)n1cc(/C=N/N=C2\SC(=O)CN2c2ccccc2)c2ccccc21 [Compound 5c] : 3.63

S.I (IC50 COX-1/IC50 COX-2) for CS(=O)(=O)n1cc(/C=N/N=C2/NCC(=O)S2)c2ccccc21 [Compound 5a] is 0.59

Per the records, this molecule ( CS(=O)(=O)n1cc(/C=N/NC(=O)Nc2ccccc2)c2ccccc21 [Compound 3b] ) has S.I (IC50 COX-1/IC50 COX-2) equal to 1.46

# molecule CS(=O)(=O)n1cc(/C=N/NC(N)=S)c2ccccc21 [Compound 4a] ; its S.I (IC50 COX-1/IC50 COX-2) = 2.80

Summary for this molecule, CS(=O)(=O)n1cc(/C=N/NC(N)=O)c2ccccc21 [Compound 3a] : S.I (IC50 COX-1/IC50 COX-2) is 0.78

Data point: CCN1CC(=O)S/C1=N\N=C\c1cn(S(C)(=O)=O)c2ccccc12 [Compound 5b] ; S.I (IC50 COX-1/IC50 COX-2) = 0.25

What the record says about Cc1ccc(NC(=S)N/N=C/c2cn(S(C)(=O)=O)c3ccccc23)cc1 [Compound 4d] : S.I (IC50 COX-1/IC50 COX-2) is 2.38

====

Entries and their measured 5-LOX %inh follow.
- TESTED_ON: 5-LOX enzyme (Homo sapiens, UniProt P09917)
- Construct: purchased Cayman Chemical K980-100
- Sequence (P09917 1-674): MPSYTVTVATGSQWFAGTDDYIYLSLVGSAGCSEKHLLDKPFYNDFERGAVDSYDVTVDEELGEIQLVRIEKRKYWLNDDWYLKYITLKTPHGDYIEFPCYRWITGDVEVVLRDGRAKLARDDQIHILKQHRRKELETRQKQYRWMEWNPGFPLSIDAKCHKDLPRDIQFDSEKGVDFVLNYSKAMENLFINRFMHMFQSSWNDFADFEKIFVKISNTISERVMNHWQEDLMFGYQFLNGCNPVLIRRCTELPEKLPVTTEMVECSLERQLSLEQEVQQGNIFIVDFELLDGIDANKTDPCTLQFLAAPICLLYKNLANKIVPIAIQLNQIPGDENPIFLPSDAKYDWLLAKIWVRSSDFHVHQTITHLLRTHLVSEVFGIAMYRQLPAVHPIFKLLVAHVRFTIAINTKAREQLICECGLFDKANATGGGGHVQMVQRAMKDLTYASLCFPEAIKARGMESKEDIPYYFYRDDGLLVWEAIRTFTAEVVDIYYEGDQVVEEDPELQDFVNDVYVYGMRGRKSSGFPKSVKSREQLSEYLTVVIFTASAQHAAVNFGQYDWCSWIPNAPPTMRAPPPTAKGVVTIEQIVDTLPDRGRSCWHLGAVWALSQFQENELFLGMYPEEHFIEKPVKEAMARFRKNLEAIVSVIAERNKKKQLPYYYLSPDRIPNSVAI
- EXPERIMENT_DESCRIPTION: 5-LOX inhibition, Human Lipoxygenase Inhibitor Screening Assay (EIA) kit
- Assay type: biochemical
- MEASUREMENT_CONDITIONS: conc 1 (μM)
Hi! Could you send only the number? It should be in %, unit omitted.

# annotated cases, reported 5-LOX %inh shown
- Cc1ccc(N2C(=O)CSC2=NN=Cc2cn(S(C)(=O)=O)c3ccccc23)cc1: 47.6
- CS(=O)(=O)n1cc(/C=N/NC(N)=S)c2ccccc21: 43.6
- CCN1CC(=O)S/C1=N\N=C\c1cn(S(C)(=O)=O)c2ccccc12: 3.84
- CCNC(=S)N/N=C/c1cn(S(C)(=O)=O)c2ccccc12: 11.6
- CS(=O)(=O)n1cc(/C=N/NC(=S)Nc2ccccc2)c2ccccc21: 37.1
- CS(=O)(=O)n1cc(/C=N/NC(=O)Nc2ccccc2)c2ccccc21: 16.1
- COc1ccc(N2CC(=O)S/C2=N\N=C\c2cn(S(C)(=O)=O)c3ccccc23)cc1: 24.1
- Cc1ccc(NC(=S)N/N=C/c2cn(S(C)(=O)=O)c3ccccc23)cc1: 12.5

Entry `CS(=O)(=O)n1cc(/C=N/NC(N)=O)c2ccccc21` — recorded 5-LOX %inh = 5.83

In plain terms, `CS(=O)(=O)n1cc(/C=N/N=C2/NCC(=O)S2)c2ccccc21` has a documented 5-LOX %inh of 17.4

Looking up `COc1ccc(NC(=S)N/N=C/c2cn(S(C)(=O)=O)c3ccccc23)cc1` , I see its 5-LOX %inh listed as 30.9

# 5-LOX %inh (compound: `CS(=O)(=O)n1cc(/C=N/N=C2\SC(=O)CN2c2ccccc2)c2ccccc21` ) is 5.84
